Origin of values: PubChem BioAssay AID504329

Measurement Protocol: H1N1 influenza NS1A inhibitors, functional cell based assay (AID 504329)
Conditions Used: percent inhibition, at 12.5 µM, stronger effect = higher value
About 1,000 (0.29%) of roughly 340,000 compounds were called active. A selection follows. Measured potencies and affinities stand elsewhere.
# Lookup of reported inhibition keyed by entry
Measured Parameter: inhibition (%)

[[record]]
compound = "Cc1cc(C(=O)Nc2ccc3c(c2)OCO3)no1"
value_measured = 6.49

[[record]]
compound = "Cc1ccccc1-c1cccc([C@@H]2C[C@H]3[C@H](CON3C)CN2S(=O)(=O)c2ccccc2C)c1"
value_measured = -6.53

[[record]]
compound = "Cc1nc2ncccn2c1-c1csc(Nc2ccc(O)cc2)n1"
value_measured = 5.22

[[record]]
compound = "CC/C(C)=N/N1C(=O)c2ccccc2NC1(C)CC (stereo unspecified)"
value_measured = 5.09

[[record]]
compound = "COC(=O)c1ccc2c(c1O)C(=O)c1ccccc1C2=O"
value_measured = 4.41

[[record]]
compound = "Cc1ccc(Nc2nc(-c3c(C)nc4ncccn34)cs2)cc1"
value_measured = -0.31

[[record]]
compound = "Cc1cnc(-n2c(=S)[nH]c3ccccc3c2=O)s1"
value_measured = -7.74

[[record]]
compound = "Cc1cc(N(CCO)CCO)ccc1C(c1ccc(N(CCO)CCO)cc1C)c1ccccc1Cl"
value_measured = 19.6

[[record]]
compound = "Nc1ccc(N(CCO)CCO)cc1"
value_measured = 11.7

[[record]]
compound = "O=C(COC(=O)C1CCC1)Nc1cc(S(=O)(=O)N2CCCCC2)ccc1Cl"
value_measured = 3.86

[[record]]
compound = "CC(C)COC(=O)c1ccccc1C(=O)OCC(C)C"
value_measured = 2.41


###

Measurement Protocol: H1N1 influenza NS1A inhibitors, functional cell based assay (AID 504329)
Conditions Used: percent inhibition, at 12.5 µM, stronger effect = higher value
The campaign covered roughly 340,000 compounds. About 1,000 (0.29%) were called active. Not all results are given here. Results with a measured potency or affinity are listed apart.
# Lookup of reported inhibition keyed by entry
Measured Parameter: inhibition (%)

[[record]]
compound = "CC(NC(=O)COC(=O)C12CC3CC(CC(Br)(C3)C1)C2)c1ccccc1 (stereo unspecified)"
value_measured = 4.11

[[record]]
compound = "Cc1ccc(S(=O)(=O)CC(=O)N2CCN(c3ccccc3F)CC2)cc1"
value_measured = 2.84

[[record]]
compound = "O=C(C1=C[C@H](c2ccc3c(c2)OCO3)C[C@H](OCCCCO)O1)N1CCOCC1"
value_measured = -1.7

[[record]]
compound = "CCN1CCN(C2=C(NS(=O)(=O)c3ccccc3)C(=O)c3ccccc3C2=O)CC1"
value_measured = -3.88

[[record]]
compound = "Cc1ccc(S(=O)(=O)NCC(=O)N2CCN(c3ccccc3F)CC2)cc1"
value_measured = 11.9

[[record]]
compound = "CCOC(=O)N1CCN(C2=C(NS(=O)(=O)c3ccccc3)C(=O)c3ccccc3C2=O)CC1"
value_measured = 18.6

[[record]]
compound = "CC(C)(C)c1nnc(N/N=C/c2ccccc2)n(N)c1=O"
value_measured = -3.79

[[record]]
compound = "CCc1nnc(NC(=O)COC(=O)c2cc(OC)cc(OC)c2)s1"
value_measured = 1.22

[[record]]
compound = "CC(C)(C)c1nnc(N/N=C/c2ccc(O)cc2)n(N)c1=O"
value_measured = 6.15

[[record]]
compound = "Cc1nnc(N/N=C/c2ccccc2O)n1N"
value_measured = 9.93

[[record]]
compound = "CC(C)(C)c1nnc(N/N=C/c2ccc(Br)cc2)n(N)c1=O"
value_measured = -5.94


###

Measurement Protocol: H1N1 influenza NS1A inhibitors, functional cell based assay (AID 504329)
Conditions Used: percent inhibition, at 12.5 µM, stronger effect = higher value
Hit rate of the full screen: of about 340,000 compounds, about 1,000 (0.29%) were called active. These entries were drawn from the full list. Measured potencies and affinities stand elsewhere.
# Lookup of reported inhibition keyed by entry
Measured Parameter: inhibition (%)

[[record]]
compound = "O=[N+]([O-])c1cc(F)c(N2CCCCC2)cc1N1CCOCC1"
value_measured = 10.6

[[record]]
compound = "COC(=O)CC1=C(C(=O)OC)C(c2ccc3c(c2)OCO3)C(C#N)=C(N)O1 (stereo unspecified)"
value_measured = -5.88

[[record]]
compound = "Fc1cccc(F)c1/C=N/NC(=S)Nc1cccnc1"
value_measured = 4.25

[[record]]
compound = "O=C1C(=O)c2ccccc2-c2ccccc21"
value_measured = 5.48

[[record]]
compound = "Fc1ccc(/C=N/NC(=S)Nc2cccnc2)cc1"
value_measured = -6.6

[[record]]
compound = "Cc1ccc(CS(=O)Cc2ccc(C(=O)NCCc3ccccc3)o2)cc1 (stereo unspecified)"
value_measured = 3.5

[[record]]
compound = "CCc1cc2c(=O)oc(-c3ccc(F)cc3)nc2s1"
value_measured = -6.8

[[record]]
compound = "S=C(N/N=C/c1ccc2ncccc2c1)Nc1cccnc1"
value_measured = -1.92

[[record]]
compound = "CCN(C(=O)COC(=O)Cc1c[nH]c2ccccc12)C1CCS(=O)(=O)C1 (stereo unspecified)"
value_measured = 2.01

[[record]]
compound = "CN(C)C(=O)c1ccc(NC(=O)COc2cccc(Oc3ccccc3)c2)cc1"
value_measured = -4.79

[[record]]
compound = "N#Cc1cc(N2CCCCC2)c([N+](=O)[O-])cc1C#N"
value_measured = 9.08


###

# Lookup of reported inhibition keyed by entry
Measurement Protocol: H1N1 influenza NS1A inhibitors, functional cell based assay (AID 504329)
Conditions Used: percent inhibition, at 12.5 µM, stronger effect = higher value
About 1,000 (0.29%) of roughly 340,000 compounds were called active. A selection follows. Entries with a potency or affinity are not part of this list.
Measured Parameter: inhibition (%)

[[record]]
compound = "CCOC(=O)C1CCN(Cc2ccc(OC)c(C)c2OC)CC1"
unit_symbol = "%"
value_measured = 0.38

[[record]]
compound = "CN(C=[N+](C)C)c1cccc2c1C(=O)c1ccccc1C2=O"
unit_symbol = "%"
value_measured = 3.5

[[record]]
compound = "COc1cc(C2CC(=O)Oc3c(C(CCN4CCOCC4)c4ccc(N(C)C)cc4)c(OC)cc(OC)c32)cc(OC)c1OC (stereo not given)"
unit_symbol = "%"
value_measured = 19.5

[[record]]
compound = "CN(C)S(=O)(=O)c1cccc2c1C(=O)c1ccccc1C2=O"
unit_symbol = "%"
value_measured = 4.55

[[record]]
compound = "O=C(CCc1nnc(COc2ccccc2)o1)NCCc1cccs1"
unit_symbol = "%"
value_measured = -7.18

[[record]]
compound = "CCN(CC)CC(=O)Nc1cccc2c1C(=O)c1ccccc1C2=O"
unit_symbol = "%"
value_measured = 11

[[record]]
compound = "Cc1cc(/C=C2\\SC(=S)N(C)C2=O)c(C)n1-c1cccc(O)c1"
unit_symbol = "%"
value_measured = -1.47

[[record]]
compound = "COc1ccc(C2CC(=O)Oc3c(C(CCN4CCN(c5ccccc5)CC4)c4ccc(N(C)C)cc4)c(OC)cc(OC)c32)cc1 (stereo not given)"
unit_symbol = "%"
value_measured = 16.5

[[record]]
compound = "COCCn1c(-c2ccc(SC)cc2)nc2c1c(=O)[nH]c(=O)n2CC(C)C"
unit_symbol = "%"
value_measured = 6.85

[[record]]
compound = "CC(=O)NC1=C(Nc2ccc(N(C)C)cc2)C(=O)c2ccccc2C1=O"
unit_symbol = "%"
value_measured = 12.5


###

Measurement Protocol: H1N1 influenza NS1A inhibitors, functional cell based assay (AID 504329)
Conditions Used: percent inhibition, at 12.5 µM, stronger effect = higher value
The whole screen tested about 340,000 compounds, of which about 1,000 (0.29%) were called active. Only a sample is shown. Results with a measured potency or affinity are listed apart.
# Lookup of reported inhibition keyed by entry
Measured Parameter: inhibition

[[record]]
compound = "Oc1cc2c(cc1CN1CCc3ccccc3C1)OCO2"
value_measured = "13.1% (inactive)"

[[record]]
compound = "Oc1ccc(CNc2ccc(F)cc2)c2cccnc12"
value_measured = "28.1% (inactive)"

[[record]]
compound = "O=c1oc2ccccc2c(O)c1Cc1cc(Cl)c2cccnc2c1O"
value_measured = "-5.95% (inactive)"

[[record]]
compound = "CCCCn1c(=O)[nH]c(=O)c2c1nc(-c1ccccc1OC(F)F)n2C"
value_measured = "-2.54% (inactive)"

[[record]]
compound = "CCOc1ccccc1OCCNC1CCCC1"
value_measured = "-3.47% (inactive)"

[[record]]
compound = "Oc1ccc(CNc2ccccc2)c2cccnc12"
value_measured = "10.6% (inactive)"

[[record]]
compound = "Oc1c(I)cc(Cl)c2cccnc12"
value_measured = "-16.7% (inactive)"


###

# Lookup of reported inhibition keyed by entry
Measurement Protocol: H1N1 influenza NS1A inhibitors, functional cell based assay (AID 504329)
Conditions Used: percent inhibition, at 12.5 µM, stronger effect = higher value
The campaign covered roughly 340,000 compounds. About 1,000 (0.29%) were called active. A selection follows. Measured potencies and affinities stand elsewhere.
Measured Parameter: inhibition

[[record]]
compound = "COC(=O)c1nc2n(n1)C(c1ccc(OC)c(OC)c1)C(C(=O)OC1CCCCC1)=C(C)N2 (stereo unspecified)"
value_measured = "1.19% (inactive)"

[[record]]
compound = "N#CC(C#N)=c1ccc2c(c1)N1C(c3ccccc3)=CC(c3ccccc3)C3CCCCC31N=2 (stereo unspecified)"
value_measured = "-4.24% (inactive)"

[[record]]
compound = "C[C@H]1CCC[C@]2(O[C@H](CCO)C[C@@H](O)[C@@H]2O)O1"
value_measured = "-6.34% (inactive)"

[[record]]
compound = "COc1ccc(/C=N/NC(=O)c2ccco2)cc1OCc1ccccc1"
value_measured = "0.58% (inactive)"

[[record]]
compound = "Cc1cccnc1Nc1nc(-c2ccc(O)cc2)cs1"
value_measured = "5.7% (inactive)"

[[record]]
compound = "CCN(CC)c1ccc(C(=O)Nc2cccc(F)c2)cc1"
value_measured = "0.06% (inactive)"

[[record]]
compound = "c1ccc(Nc2nc(-c3ccccn3)cs2)cc1"
value_measured = "8.8% (inactive)"

[[record]]
compound = "CSc1ccc(CN(C)CC(=O)Nc2c(F)cccc2F)cc1"
value_measured = "4.59% (inactive)"

[[record]]
compound = "COc1ccc(/C=N/NC(=O)c2cc(C)oc2C)cc1OCc1ccccc1"
value_measured = "9.7% (inactive)"

[[record]]
compound = "Cc1cccc(Nc2nc(-c3cccs3)cs2)n1"
value_measured = "8.74% (inactive)"

[[record]]
compound = "OC1(C#CCN2CCCC2)CCCCC1"
value_measured = "-3.16% (inactive)"

